The reported numbers originate from patent US9718841B2.

The following molecules are shown together with reported F values.
PROTOCOL_DESCRIPTION: Pharmacokinetic profiles in rats
Format: in vivo
RECORDED_CONDITIONS: bioavailability
Experimental: The compounds disclosed herein are assessed in pharmacokinetic studies in mice, rats, dogs or monkeys. The compounds are administered as a water solution, 2% HPMC+1% TWEEN® 80 in water solution, 5% DMSO+5% solutol in saline, 4% MC suspension or capsule. For the intravenous administration, the animals are generally given at 1 or 2 mg/kg dose. […] The plasma solutions are collected, and stored at −20° C. or −70° C. until analyzed by LC/MS/MS as described above.
MEASURE_NAME: F

{"columns": ["MOLECULE", "RESULT"],
 "data": [
  ["CC(=O)Nc1cc(Oc2ccc(NC(=O)c3c4n(n(-c5ccccc5)c3=O)CCOC4)nc2)ccn1 [Ex. 12]", "72.1%"],
  ["CC(=O)Nc1cc(Oc2ccc(NC(=O)c3c4n(n(-c5ccccc5)c3=O)CCC4)cc2)ccn1 [Ex. 3]", "94.5%"],
  ["Nc1cc(Oc2ccc(NC(=O)c3c4n(n(-c5ccccc5)c3=O)CCC4)cc2)ccn1 [Ex. 1]", "163.3%"],
  ["O=C(Nc1ccc(Oc2ccnc(NC(=O)C3CC3)c2)cc1)c1c2n(n(-c3ccccc3)c1=O)CCOC2 [Ex. 19]", "66.7%"],
  ["O=C(Nc1ccc(Oc2ccnc(NC(=O)C3CC3)c2)cn1)c1c2n(n(-c3ccccc3)c1=O)CCC2 [Ex. 14]", "87.9%"],
  ["O=C(Nc1ccc(Oc2ccnc(NC(=O)C3CC3)c2)cc1)c1c2n(n(-c3ccccc3)c1=O)CCC2 [Ex. 2]", "68.1%"]
]}
